- target.of.assay: PI3K delta (Homo sapiens, UniProt O00329)
- Sequence (O00329 whole entry): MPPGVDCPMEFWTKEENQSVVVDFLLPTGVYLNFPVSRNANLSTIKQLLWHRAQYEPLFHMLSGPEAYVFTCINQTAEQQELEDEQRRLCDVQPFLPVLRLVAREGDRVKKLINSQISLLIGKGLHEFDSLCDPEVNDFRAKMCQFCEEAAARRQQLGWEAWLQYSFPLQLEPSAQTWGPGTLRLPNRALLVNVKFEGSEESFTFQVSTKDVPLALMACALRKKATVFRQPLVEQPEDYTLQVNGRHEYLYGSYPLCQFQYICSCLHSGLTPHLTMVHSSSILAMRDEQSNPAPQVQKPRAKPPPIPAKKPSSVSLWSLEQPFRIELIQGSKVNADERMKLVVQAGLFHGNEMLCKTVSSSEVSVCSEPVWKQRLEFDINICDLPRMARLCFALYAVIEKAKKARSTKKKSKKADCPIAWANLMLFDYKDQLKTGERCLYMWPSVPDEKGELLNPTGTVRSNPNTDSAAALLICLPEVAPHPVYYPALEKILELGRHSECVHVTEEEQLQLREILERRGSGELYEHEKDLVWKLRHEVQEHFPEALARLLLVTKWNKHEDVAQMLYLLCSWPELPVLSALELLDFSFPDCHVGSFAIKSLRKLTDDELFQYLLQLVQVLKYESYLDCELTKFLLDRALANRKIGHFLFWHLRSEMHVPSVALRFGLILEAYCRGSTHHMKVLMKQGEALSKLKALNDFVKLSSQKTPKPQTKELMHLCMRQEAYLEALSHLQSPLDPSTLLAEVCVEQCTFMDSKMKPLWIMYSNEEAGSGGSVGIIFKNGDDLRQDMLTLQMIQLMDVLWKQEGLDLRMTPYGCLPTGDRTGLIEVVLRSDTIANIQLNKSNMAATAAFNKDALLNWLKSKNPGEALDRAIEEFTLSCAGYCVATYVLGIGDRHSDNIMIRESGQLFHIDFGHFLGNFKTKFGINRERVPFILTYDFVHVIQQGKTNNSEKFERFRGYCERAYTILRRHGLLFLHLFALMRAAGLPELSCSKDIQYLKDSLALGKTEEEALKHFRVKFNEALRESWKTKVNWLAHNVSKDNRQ
- Sequence (P27986 whole entry partner): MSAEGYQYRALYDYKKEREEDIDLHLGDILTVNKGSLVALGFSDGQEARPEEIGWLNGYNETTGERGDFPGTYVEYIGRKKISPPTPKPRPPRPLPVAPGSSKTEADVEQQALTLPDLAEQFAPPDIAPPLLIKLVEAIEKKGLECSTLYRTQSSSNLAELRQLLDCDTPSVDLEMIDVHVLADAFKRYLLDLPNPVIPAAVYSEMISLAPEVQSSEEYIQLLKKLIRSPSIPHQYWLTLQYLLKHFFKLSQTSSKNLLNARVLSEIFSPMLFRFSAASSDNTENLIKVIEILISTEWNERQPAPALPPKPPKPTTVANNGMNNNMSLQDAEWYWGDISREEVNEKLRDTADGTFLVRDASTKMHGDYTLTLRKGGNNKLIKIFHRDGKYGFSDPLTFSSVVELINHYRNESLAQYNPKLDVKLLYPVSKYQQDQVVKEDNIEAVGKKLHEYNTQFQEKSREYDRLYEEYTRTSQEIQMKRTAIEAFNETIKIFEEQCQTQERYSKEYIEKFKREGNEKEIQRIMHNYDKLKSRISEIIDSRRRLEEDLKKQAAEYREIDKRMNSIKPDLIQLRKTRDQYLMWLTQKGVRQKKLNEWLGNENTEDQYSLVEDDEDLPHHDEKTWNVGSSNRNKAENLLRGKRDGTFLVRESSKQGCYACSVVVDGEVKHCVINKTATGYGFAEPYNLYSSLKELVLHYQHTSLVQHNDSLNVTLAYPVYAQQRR
- protocol.description: Luciferase-coupled chemiluminescence kinase assay (ATP consumption, KinaseGlo)
pIC50: −log10 of the molar value.

{"compound": "CCn1c(-c2cnn(C)c2)nc2c(N3CCC4(CC3)C(=O)Nc3ccccc34)ncnc21 [Compound 245]", "pIC50": "> 7.30"}
{"compound": "Cn1c(C(=O)NCC2CC2)nc2c(N3CCC(n4c(=O)[nH]c5cc(Cl)ccc54)CC3)ncnc21 [Compound 228]", "pIC50": "5.82 to 6.30"}
{"compound": "Cn1c(-c2c[nH]c3ncccc23)nc2c(N3CCC(n4c(=O)[nH]c5ccccc54)CC3)ncnc21 [Compound 301]", "pIC50": "> 7.30"}
{"compound": "CC(C)CCNC(=O)c1nc2c(N3CCC(n4c(=O)[nH]c5ccccc54)CC3)ncnc2n1C [Compound 72]", "pIC50": "6.60 to 7.30"}
{"compound": "CC(C)NC(=O)c1nc2c(N3CCC4(CC3)C(=O)Nc3ccccc34)ncnc2n1C [Compound 24]", "pIC50": "6.60 to 7.30"}
{"compound": "Cn1c(C(=O)NC2CCc3ccccc32)nc2c(N3CCC4(CC3)C(=O)Nc3ccccc34)ncnc21 (stereo not shown) [Compound 18]", "pIC50": "6.30 to 6.60"}
{"compound": "CN(C)CCN1C(=O)C2(CCN(c3ncnc4c3nc(C(=O)NCC3CC3)n4C)CC2)c2ccccc21 [Compound 397]", "pIC50": "5.82 to 6.30"}
